System: UACC-62 melanoma
assay_info: NCI-60 one-dose screen, 48 h
measurement_parameters: 10 µM unless noted
This is part of a sample that, as a whole, favours compounds with a hit. Of some 83,000 tested, about 20% had one in any assay. The source made the active and inactive calls. Rule for the calls: active = growth percent below 10; inactive = the rest.
Reply using exactly one outcome from Yes (active), No (inactive)

Use the examples below as a reference point.
molecular_string=CC[C@]12C=CCN3CC[C@@]4(c5ccc(OC)cc5N(C)[C@H]4[C@@](O)(C(=O)OC)[C@@H]1OC(=O)CCC(=O)O[C@H]1CC[C@H]4[C@@H]5CCC6=CC(=O)CC[C@@H]6[C@H]5CC[C@]14C)[C@@H]32 label_class=Yes
molecular_string=Cc1nc(-c2ccccc2)sc1CC#N label_class=No
molecular_string=c1ccc(-c2nc(N3CCCNCC3)c3nc(-c4ccccc4)oc3n2)cc1 label_class=Yes
molecular_string=CCCCCCCCCCCCCC[n+]1cccc(C(N)=O)c1 label_class=Yes
molecular_string=CC1(C)C(=NO)C(C)(C)C1=NO label_class=No

## Task Query: recorded result category for O=C(Nc1cccc(C2=NCCN2)c1)c1cccc(C(=O)Nc2cccc(C3=NCCN3)c2)c1 in this test
## Result No

## Task Query: recorded result category for C=C(CC(=O)OC)C(C)=O in this test
## Result No

## Task Query: recorded result category for Cn1cc(-c2noc(-c3cn(C)c4ncc(F)cc34)n2)c2cc(Br)ccc21 in this test
## Result No

## Task Query: recorded result category for CCCCCCCCCCCCCCNC(=O)Nc1ccc(Cl)c(Cl)c1 in this test
## Result No

## Task Query: recorded result category for COc1ccc(-c2cc(-c3ccc(Cl)cc3)nc(NCCCCNc3ccnc4cc(Cl)ccc34)n2)cc1 in this test
## Result No
